target: T1, human serum albumin (human, UniProt P02768 25-609); test: SPR, HSA immobilised;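 further: nanobody analytes injected as dilution series across three log units over CM5 chip with amine-coupled antigen, kinetics fitted by 1:1 Langmuir model, optionally with mass transfer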
T1 construct: In the mutant screen wild type HSA came from medium of transfected HeLa cells; also called HSA; wild type HSA
T1 sequence (P02768 25-609 limits assumed): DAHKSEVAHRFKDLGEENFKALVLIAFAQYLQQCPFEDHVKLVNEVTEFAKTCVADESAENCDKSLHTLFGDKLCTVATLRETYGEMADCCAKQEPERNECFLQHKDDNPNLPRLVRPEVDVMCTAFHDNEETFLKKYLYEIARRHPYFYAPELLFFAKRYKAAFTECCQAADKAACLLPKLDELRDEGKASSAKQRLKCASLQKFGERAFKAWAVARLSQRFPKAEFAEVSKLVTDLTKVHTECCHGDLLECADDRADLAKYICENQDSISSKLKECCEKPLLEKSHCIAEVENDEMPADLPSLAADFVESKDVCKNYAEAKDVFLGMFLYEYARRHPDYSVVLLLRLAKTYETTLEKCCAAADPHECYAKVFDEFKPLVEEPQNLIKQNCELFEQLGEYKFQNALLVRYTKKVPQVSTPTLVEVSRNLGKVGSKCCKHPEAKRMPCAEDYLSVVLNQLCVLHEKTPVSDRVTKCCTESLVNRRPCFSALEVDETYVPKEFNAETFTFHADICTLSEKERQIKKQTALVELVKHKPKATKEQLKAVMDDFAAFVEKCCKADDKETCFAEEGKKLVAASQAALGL
// Kd lookup, one value per entry
Your answer is read as nM, so omit the unit and give the number.

A selection of reference data follows.
binder	Kd (nM)
H14 (VHH) VHH: HVQLVESGGGLVQAGGSLRLSCTASGRTFTPYTMGWFRQAPGKEREFVASILWSGNNRDYADSVKDRFAISRDNAKNTAYLQMNSLKPEDTAVYYCAAGDGLGFYRSVNQYDYWGQGTQVTVSS	0.0223
H2 (VHH) VHH: QVQLVESGGGLVQAGGSLRLSCTASGRTFTPYTIGWFRQAPGKEREFVASILWSGINTDYADSVKGRFAISRDNAKNAAYLQMSNLKPEDTAVYYCATGGGLGYYRSVSQYDYWGQGTQVTVSE	0.17
H21 (VHH) VHH: QVQLVESGGGLVQAGGSLRLSCAASGYTSGNDAMGWFRQAPGKEREFVGAIRWSGVSTYYADSVKGRFTISRDGAKNTLYLQMNSLKPEDTAVYYCAAKFTGSAWYGVQKLESTYWDYWGQGTQVTVSS	0.266

From here, focus on the item given below.
Task item: Determine its reported Kd: H18 (VHH) VHH: EVQLVESGGGLVQAGGSLRLSCTASGPKDTPYTMGWFRQVPGKEREFVASVLWSGINTDYADSVKGRFAISRNNAKNTMYLQMNSLKPEDTAVYYCAAGYGLGFYRSISQYDYWGHGTQVTVSS
Reply: 0.502
